test: Selectivity ratio of Ki for recombinant bovine eNOS to Ki for recombinant rat nNOS
Parameter threshold = 90. Response is True when Ratio Ki meets or exceeds it, else False.

Some solved entries appear below for comparison.
| Compound | Class assignment |
| --- | --- |
| Cc1cc(N)nc(CCCCCCCc2cc(C)cc(N)n2)c1 | False |
| Cc1cc(N)nc(COc2cccc(OCc3ccncc3)c2)c1 | True |
| Cc1cc(N)nc(COc2cccc(OCCCN)c2)c1 | True |

Exam item: Could you verify whether the entry Cc1cc(N)nc(COc2cccc(OCC3CCNCC3)c2)c1 shows Ratio Ki of no less than 90?
Marked response: True

Exam item: Is reported Ratio Ki greater than or equal to 90 here: Cc1cc(N)nc(COCc2cccc(CNCCc3cccc(F)c3)n2)c1
Marked response: False

Exam item: API: above_or_equal(metric=Ratio Ki, cutoff=90) for item Cc1cc(N)nc(CCCCCCc2cc(C)cc(N)n2)c1
Marked response: False
